// reported IC50 per item
# Assay system: human recombinant FAAH (Homo sapiens (Human))
# Sequence (O00519 whole entry): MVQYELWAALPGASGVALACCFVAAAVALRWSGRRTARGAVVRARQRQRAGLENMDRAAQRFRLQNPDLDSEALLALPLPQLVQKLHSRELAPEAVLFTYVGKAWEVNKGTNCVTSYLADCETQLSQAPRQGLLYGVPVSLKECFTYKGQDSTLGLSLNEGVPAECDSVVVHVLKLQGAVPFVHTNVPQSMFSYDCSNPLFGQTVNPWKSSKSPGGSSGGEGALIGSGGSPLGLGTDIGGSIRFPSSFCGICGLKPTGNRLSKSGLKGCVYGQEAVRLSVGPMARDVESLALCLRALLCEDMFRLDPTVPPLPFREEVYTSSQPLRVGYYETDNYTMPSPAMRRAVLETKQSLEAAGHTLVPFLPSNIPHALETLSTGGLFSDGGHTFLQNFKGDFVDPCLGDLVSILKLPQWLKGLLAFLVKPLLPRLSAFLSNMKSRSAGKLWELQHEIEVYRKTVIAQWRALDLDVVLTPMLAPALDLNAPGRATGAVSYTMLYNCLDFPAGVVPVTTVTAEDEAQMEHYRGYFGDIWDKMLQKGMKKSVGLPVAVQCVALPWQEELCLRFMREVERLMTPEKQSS
# Assay explanation: In vitro inhibition of FAAH activity (fluorescent inhibitor screening kit, AMC arachidonoyl amide)
# Type: biochemical
# Stated conditions: human recombinant FAAH; read-out: Inhibition on FAAH activity (IC50)

[
  {
    "Molecule": "CCCCCCCCNC(=O)Oc1cccc(-c2cncc(-c3cccs3)c2)c1",
    "IC50": "10 to 100 nM"
  },
  {
    "Molecule": "COC(=O)c1cncc(-c2cccc(OC(=O)NC3CCCCC3)c2)c1",
    "IC50": "10 to 100 nM"
  },
  {
    "Molecule": "O=C(Oc1cccc(-c2cncc(-c3nnco3)c2)c1)N1CC2CC2C1 (stereo not drawn)",
    "IC50": "> 1000 nM"
  },
  {
    "Molecule": "CCCCCCCCNC(=O)Oc1ccc(OC)c(-c2cncc(-c3nnco3)c2)c1",
    "IC50": "1 to 10 nM"
  },
  {
    "Molecule": "COc1cc(OC(=O)NC2CCCCC2)cc(-c2cncc(-c3nnco3)c2)c1",
    "IC50": "~100 nM"
  },
  {
    "Molecule": "CCCCCCCCNC(=O)Oc1cccc(-c2cncc(C(=O)NO)c2)c1",
    "IC50": "> 1000 nM"
  },
  {
    "Molecule": "COc1ccc(OC(=O)NC2CCCCC2)cc1-c1cncc(-c2ccco2)c1",
    "IC50": "100 to 1000 nM"
  },
  {
    "Molecule": "COc1ccc(OC(=O)NC2CCCC2)cc1-c1cncc(-c2ncn[nH]2)c1",
    "IC50": "100 to 1000 nM"
  },
  {
    "Molecule": "COc1ccc(OC(=O)NC2CCCCCC2)cc1-c1cncc(-c2ccco2)c1",
    "IC50": "100 to 1000 nM"
  },
  {
    "Molecule": "COc1ccc(OC(=O)NCc2ccccc2)cc1-c1cncc(-c2ccno2)c1",
    "IC50": "100 to 1000 nM"
  },
  {
    "Molecule": "Cc1cc(OC(=O)NC2CCCCCCC2)cc(-c2cncc(-c3ncco3)c2)c1",
    "IC50": "100 to 1000 nM"
  },
  {
    "Molecule": "CCCCCCCCNC(=O)Oc1cccc(-c2cncc(C(=O)OCC)c2)c1",
    "IC50": "10 to 100 nM"
  }
]

###

# Assay system: human recombinant MAGL (Homo sapiens (Human))
# Sequence (Q99685 whole entry): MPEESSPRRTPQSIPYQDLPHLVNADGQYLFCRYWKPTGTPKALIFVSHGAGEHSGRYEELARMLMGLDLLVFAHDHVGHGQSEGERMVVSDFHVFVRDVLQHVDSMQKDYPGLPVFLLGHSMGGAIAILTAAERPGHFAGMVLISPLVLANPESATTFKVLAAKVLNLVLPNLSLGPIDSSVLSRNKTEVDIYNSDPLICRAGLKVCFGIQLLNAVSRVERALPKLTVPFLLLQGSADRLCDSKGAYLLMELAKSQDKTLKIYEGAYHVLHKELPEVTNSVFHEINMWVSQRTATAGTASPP
# Assay explanation: In vitro inhibition of MAGL activity (inhibitor screening kit, 4-nitrophenylacetate)
# Stated conditions: human recombinant MAGL

[
  {
    "Smiles str": "O=C(NC1CCCCCC1)Oc1cccc(-c2cc(-c3nnco3)ccn2)c1",
    "Assay system": "human recombinant MAGL (Homo sapiens (Human))",
    "IC50": "> 1 µM"
  },
  {
    "Smiles str": "O=C(NC1CCCCCC1)Oc1cccc(-c2cncc(-c3nccs3)c2)c1",
    "Assay system": "human recombinant MAGL (Homo sapiens (Human))",
    "IC50": "~10 µM"
  },
  {
    "Smiles str": "O=C(NCC1CCCCC1)Oc1cc(O)cc(-c2cncc(-c3nnco3)c2)c1",
    "Assay system": "human recombinant MAGL (Homo sapiens (Human))",
    "IC50": "10 to 50 µM"
  },
  {
    "Smiles str": "CSc1ccc(OC(=O)NC2CCCCCC2)cc1-c1cncc(-c2nnco2)c1",
    "Assay system": "human recombinant MAGL (Homo sapiens (Human))",
    "IC50": "> 10 µM"
  },
  {
    "Smiles str": "O=C(NC1CCCCC1)Oc1cccc(-c2cncc(-c3nnco3)c2)c1",
    "Assay system": "human recombinant MAGL (Homo sapiens (Human))",
    "IC50": "> 50 µM"
  },
  {
    "Smiles str": "CCCCCCCNC(=O)Oc1cccc(-c2cncc(-c3ncco3)c2)c1",
    "Assay system": "human recombinant MAGL (Homo sapiens (Human))",
    "IC50": "> 1 µM"
  },
  {
    "Smiles str": "O=C(NC1CCCCC1)Oc1cccc(-c2cncc(-c3ccno3)c2)c1",
    "Assay system": "human recombinant MAGL (Homo sapiens (Human))",
    "IC50": "> 10 µM"
  },
  {
    "Smiles str": "COc1cc(OC(=O)NC2CCCCC2)cc(-c2cncc(-c3nnco3)c2)c1",
    "Assay system": "human recombinant MAGL (Homo sapiens (Human))",
    "IC50": "> 10 µM"
  },
  {
    "Smiles str": "COC(=O)c1cncc(-c2cccc(OC(=O)NC34CC5CC(CC(C5)C3)C4)c2)c1",
    "Assay system": "human recombinant MAGL (Homo sapiens (Human))",
    "IC50": "> 10 µM"
  },
  {
    "Smiles str": "O=C(NCC1CCCCC1)Oc1cccc(-c2cncc(-c3nncs3)c2)c1",
    "Assay system": "human recombinant MAGL (Homo sapiens (Human))",
    "IC50": "> 10 µM"
  },
  {
    "Smiles str": "O=C(NCC1CCCCC1)Oc1cccc(-c2cncc(-c3nccs3)c2)c1",
    "Assay system": "human recombinant MAGL (Homo sapiens (Human))",
    "IC50": "~10 µM"
  },
  {
    "Smiles str": "O=C(NC1CCCCCC1)Oc1cccc(-c2cncc(-c3cccs3)c2)c1",
    "Assay system": "human recombinant MAGL (Homo sapiens (Human))",
    "IC50": "> 10 µM"
  },
  {
    "Smiles str": "N#Cc1cncc(-c2cccc(OC(=O)NC3CCCCC3)c2)c1",
    "Assay system": "human recombinant MAGL (Homo sapiens (Human))",
    "IC50": "> 10 µM"
  },
  {
    "Smiles str": "O=C(NCc1ccccc1)Oc1cccc(-c2cc(-c3nnco3)ccn2)c1",
    "Assay system": "human recombinant MAGL (Homo sapiens (Human))",
    "IC50": "> 10 µM"
  },
  {
    "Smiles str": "COc1ccc(OC(=O)NCc2ccccc2)cc1-c1cncc(-c2nncs2)c1",
    "Assay system": "human recombinant MAGL (Homo sapiens (Human))",
    "IC50": "> 10 µM"
  }
]
